test system: MCF10A; assay: perturbation Mahalanobis distance of morphological profile vs DMSO controls (Mahalanobis distance (SD units)); higher = stronger morphological change, active = 7 or more; conditions: screen batch: Batch2_Mahalanobis_Distance; 72 h
QUANTITY: perturbation Mahalanobis distance
Respond numerically, and do not add a unit to the figure.

Reported perturbation Mahalanobis distance of O=C(Nc1ccc([N+](=O)[O-])cc1Cl)c1cc(Cl)ccc1O [Niclosamide] (5.3 µM) : 5.7

Reported perturbation Mahalanobis distance of COC(=O)C1=C(C)NC(C)=C(C(=O)OCC(C)C)C1c1ccccc1[N+](=O)[O-] (stereo not given) [Nisoldipine] (13 µM) : 2.36

Reported perturbation Mahalanobis distance of O=C1c2c(O)ccc(O)c2C(=O)c2c(NCCNCCO)ccc(NCCNCCO)c21 [Mitoxantrone] (3.4 µM) : 16.4

Reported perturbation Mahalanobis distance of CC/C(=C(\c1ccc(O)cc1)c1ccc(OCCNC)cc1)c1ccccc1 [Endoxifen] (6.75 µM) : 7.34

Reported perturbation Mahalanobis distance of COc1cc(C(=O)NS(=O)(=O)c2ccccc2C)ccc1Cc1cn(C)c2ccc(NC(=O)OC3CCCC3)cc12 [Zafirlukast] (0.26 µM) : 1.99

Reported perturbation Mahalanobis distance of O=C1CC2(CCCC2)CC(=O)N1CCCCN1CCN(c2ncccn2)CC1 [Buspirone] (0.05 µM) : 3.36

---
Reported perturbation Mahalanobis distance of NNC(=O)c1ccncc1 [Isoniazid] (73.5 µM) : 2.59

Reported perturbation Mahalanobis distance of CCC(c1ccccc1)c1c(O)oc2ccccc2c1=O (stereo not given) [Phenprocoumon] (64.2 µM) : 3.97

Reported perturbation Mahalanobis distance of CC/C(=C(\c1ccccc1)c1ccc(OCCN(C)C)cc1)c1ccccc1 [Tamoxifen] (6.7 µM) : 2.63

Reported perturbation Mahalanobis distance of CC(=O)/C(C#N)=C(\O)Nc1ccc(C(F)(F)F)cc1 [Teriflunomide (A77 1726)] (66.9 µM) : 2.47

----------
tested on: MCF10A; assay: perturbation Mahalanobis distance of morphological profile vs DMSO controls (Mahalanobis distance (SD units)); higher = stronger morphological change, active = 7 or more; conditions: screen batch: Batch2_Mahalanobis_Distance; 72 h
QUANTITY: perturbation Mahalanobis distance
Respond numerically, and do not add a unit to the figure.

Study these solved cases before continuing.
Reported perturbation Mahalanobis distance of NCCCC(N)(C(=O)O)C(F)F (stereo not drawn) [Eflornithine] (319.5 µM) : 2.74

Reported perturbation Mahalanobis distance of CCCSc1ccc2nc(NC(=O)OC)[nH]c2c1 [Albendazole] (28.3 µM) : 15.4

Reported perturbation Mahalanobis distance of Cc1ccsc1C(=CCCN1CCC[C@@H](C(=O)O)C1)c1sccc1C [Tiagabine] (2.7 µM) : 3.14

Reported perturbation Mahalanobis distance of O=C1CCC(N2C(=O)c3ccccc3C2=O)C(=O)N1 (stereo not drawn) [Thalidomide] (19.4 µM) : 2.83

Reported perturbation Mahalanobis distance of OC(CCN1CCCCC1)(c1ccccc1)C1CCCCC1 (stereo not drawn) [Trihexyphenidyl] (3.3 µM) : 2.42

Reported perturbation Mahalanobis distance of COCc1c(C(C)C)nc(C(C)C)c(/C=C/[C@@H](O)C[C@@H](O)CC(=O)O)c1-c1ccc(F)cc1 [Cerivastatin] (0.46 µM) : 13.1

Reported perturbation Mahalanobis distance of COC(=O)[C@H](c1ccccc1Cl)N1CCc2sccc2C1 [Clopidogrel] (0.12 µM) : 2.59

Reported perturbation Mahalanobis distance of CCCCN1C[C@H](O)[C@@H](O)[C@H](O)[C@H]1CO [Miglustat] (92.6 µM) : 3.14

Reported perturbation Mahalanobis distance of O=C1CCc2ccc(OCCCCN3CCN(c4cccc(Cl)c4Cl)CC3)cc2N1 [Aripiprazole] (3.3 µM) : 2.92

Reported perturbation Mahalanobis distance of NCCc1ccc(O)c(O)c1 [Dopamine] (2.5 µM) : 4.04

---
Reported perturbation Mahalanobis distance of Nc1nc(=O)c2ncn(COC(CO)CO)c2[nH]1 [Ganciclovir] (98 µM) : 3.75

Reported perturbation Mahalanobis distance of COc1cc(C(=O)NCc2ccc(OCCN(C)C)cc2)cc(OC)c1OC [Trimethobenzamide] (257.426.762 µM) : 5.46

Reported perturbation Mahalanobis distance of O=c1n(CCCN2CCN(c3cccc(Cl)c3)CC2)nc2ccccn12 [Trazodone] (21.5 µM) : 3.12

Reported perturbation Mahalanobis distance of CC(C)C1CCC(C(=O)N[C@H](Cc2ccccc2)C(=O)O)CC1 (stereo partly drawn) [Nateglinide] (66.1 µM) : 3.16

Reported perturbation Mahalanobis distance of CNCCCC12CCC(c3ccccc31)c1ccccc12 [Maprotiline] (10.8 µM) : 6.41

Reported perturbation Mahalanobis distance of Cc1oncc1C(=O)Nc1ccc(C(F)(F)F)cc1 [Leflunomide] (333.1 µM) : 2.68

Reported perturbation Mahalanobis distance of O=c1ncnc2[nH][nH]cc1-2 [Allopurinol] (139.6 µM) : 2.89

Reported perturbation Mahalanobis distance of O=C(C1CCCCC1)N1CC(=O)N2CCc3ccccc3C2C1 (stereo not drawn) [Praziquantel] (3.2 µM) : 3.64

----------
Known perturbation Mahalanobis distance of a selection of compounds
tested on: MCF10A; assay: perturbation Mahalanobis distance of morphological profile vs DMSO controls (Mahalanobis distance (SD units)); higher = stronger morphological change, active = 7 or more; conditions: screen batch: Batch2_Mahalanobis_Distance; 72 h
Respond numerically, and do not add a unit to the figure.

Study these solved cases before continuing.
Reported perturbation Mahalanobis distance of COc1ccccc1Oc1c(NS(=O)(=O)c2ccc(C(C)(C)C)cc2)nc(-c2ncccn2)nc1OCCO [Bosentan] (33.6 µM) : 5.42

Reported perturbation Mahalanobis distance of CN(C)c1nc(N(C)C)nc(N(C)C)n1 [Altretamine] (98.9 µM) : 3.12

Reported perturbation Mahalanobis distance of Cc1ccc(NC(=O)c2ccc(CN3CCN(C)CC3)cc2)cc1Nc1nccc(-c2cccnc2)n1 [Imatinib] (14 µM) : 6.84

Consider the additional compound presented here.
Reported perturbation Mahalanobis distance of CCN(CC)C(=S)S [Sodium Diethyldithiocarbamate Trihydrate] (10 µM) : 3.24

----------
system: MCF10A; assay: perturbation Mahalanobis distance of morphological profile vs DMSO controls (Mahalanobis distance (SD units)); higher = stronger morphological change, active = 7 or more; conditions: screen batch: Batch1_Mahalanobis_Distance; 72 h
Known perturbation Mahalanobis distance of a selection of compounds
Respond numerically, and do not add a unit to the figure.

Study these solved cases before continuing.
Reported perturbation Mahalanobis distance of Cc1ncc([N+](=O)[O-])n1CCO [Metronidazole] (58.4 µM) : 3.04

Reported perturbation Mahalanobis distance of CCc1c2c(nc3ccc(O)cc13)-c1cc3c(c(=O)n1C2)COC(=O)[C@]3(O)CC [7-Ethyl-10-Hydroxy-Camptothecin] (16.78 µM) : 2.85

Reported perturbation Mahalanobis distance of O=C1[C@H](CC[C@H](O)c2ccc(F)cc2)[C@@H](c2ccc(O)cc2)N1c1ccc(F)cc1 [Ezetimibe] (0.87 µM) : 3.59

Reported perturbation Mahalanobis distance of CCC(c1ccccc1)c1c(O)oc2ccccc2c1=O (stereo not drawn) [Phenprocoumon] (64.2 µM) : 2.32

Reported perturbation Mahalanobis distance of NC(=O)OCC(COC(N)=O)c1ccccc1 [Felbamate] (205.7 µM) : 2.24

Reported perturbation Mahalanobis distance of O=C1c2c(O)ccc(O)c2C(=O)c2c(NCCNCCO)ccc(NCCNCCO)c21 [Mitoxantrone] (3.4 µM) : 9.47

Reported perturbation Mahalanobis distance of CC(C)C(=O)Nc1ccc([N+](=O)[O-])c(C(F)(F)F)c1 [Flutamide] (27.2 µM) : 4.39

---
Reported perturbation Mahalanobis distance of CNCCCC12CCC(c3ccccc31)c1ccccc12 [Maprotiline] (10.8 µM) : 3.39

----------
tested on: MCF10A; experiment: perturbation Mahalanobis distance of morphological profile vs DMSO controls (Mahalanobis distance (SD units)); higher = stronger morphological change, active = 7 or more; conditions: screen batch: Batch1_Mahalanobis_Distance; 72 h
Counter-ions that a name gives are not always drawn.
QUANTITY: perturbation Mahalanobis distance

Reported perturbation Mahalanobis distance of CCCSc1ccc2nc(NC(=O)OC)[nH]c2c1 [Albendazole] (28.3 µM) : 13.8 (active)

Reported perturbation Mahalanobis distance of N=C(N)c1ccc(OCCCCCOc2ccc(C(=N)N)cc2)cc1 [Pentamidine] (7.4 µM) : 7.67 (active)

Reported perturbation Mahalanobis distance of Nc1nc(NC2CC2)c2ncn(C3C=C[C@H](CO)C3)c2n1 (some centres undefined) [Abacavir] (74.4 µM) : 3.81 (inactive)

Reported perturbation Mahalanobis distance of NC(N)=NCC1COC2(CCCCC2)O1 (centres undefined) [Guanadrel] (140.7 µM) : 2.66 (inactive)

Reported perturbation Mahalanobis distance of NCCCC(N)(C(=O)O)C(F)F (centres undefined) [Eflornithine] (319.5 µM) : 2.24 (inactive)

---
Reported perturbation Mahalanobis distance of O=c1[nH]cc(F)c(=O)[nH]1 [5-Fluorouracil] (2.5 µM) : 7.34 (active)

Reported perturbation Mahalanobis distance of C[C@@H](NCCCc1cccc(C(F)(F)F)c1)c1cccc2ccccc12 [Cinacalcet] (0.4 µM) : 2.7 (inactive)

Reported perturbation Mahalanobis distance of CC12CCC(=O)C=C1C=CC1C2CCC2(C)C1CCC21CCC(=O)O1 (centres undefined) [Canrenone] (3 µM) : 3.06 (inactive)

Reported perturbation Mahalanobis distance of Nc1cc(N2CCCCC2)nc(N)[n+]1OS(=O)(=O)[O-] [Minoxidil Sulfate] (4.3 µM) : 3.4 (inactive)
